Recorded values, source paper PMC7318006.

Assay: Concentration in autopsy samples of cerebral cortex of deceased patients, HPLC-UV
Format: in vivo, human
Settings: human, cerebral cortex, 1200 mg; patient 10, cumulative dose 1,200 mg, treatment 11 days, 29 h between last administration and death, 21 h between death and sampling, LLOQ 0.05 μg/g; read-out: Concn in cerebral cortex (autopsy)
Starred links: 1 amine or outer side, 2 acyl side, 3 side chain; linkers in the order of their positions; H or OH if unused. Positions of bridges follow the written chain, without caps; N, C: chain ends. Non-standard residues stand in square brackets, D forms with d. Residues, ends and D or L forms follow the SMILES beside them. *: point of attachment. pTerphenylCO(4''-OnC5H11) = CCCCCOc1ccc(-c2ccc(-c3ccc(C(=O)*)cc3)cc2)cc1; Orn(4R-OH,5R-OH) = O=C([C@H](C[C@@H](O)[C@@H](O)N[*:3])N[*:1])[*:2]; hTyr(3S-OH,4S-OH) = N[C@H](C(=O)O)[C@H](O)[C@@H](O)c1ccc(O)cc1; Pro(3S-OH,4S-Me) = C[C@H]1CN[C@H](C(=O)O)[C@H]1O; Hyp = O=C(O)[C@@H]1C[C@@H](O)CN1
Attribute measured: tissue level at time at 29 h (ng/g)

1. CCCCCOc1ccc(-c2ccc(-c3ccc(C(=O)N[C@H]4C[C@@H](O)[C@@H](O)NC(=O)[C@@H]5[C@@H](O)[C@@H](C)CN5C(=O)[C@H]([C@@H](C)O)NC(=O)[C@H]([C@H](O)[C@@H](O)c5ccc(O)cc5)NC(=O)[C@@H]5C[C@@H](O)CN5C(=O)[C@H]([C@@H](C)O)NC4=O)cc3)cc2)cc1 [anidulafungin] ({pTerphenylCO(4''-OnC5H11)}-[Orn(4R-OH,5R-OH)]T[Hyp][hTyr(3S-OH,4S-OH)]T[Pro(3S-OH,4S-Me)]; lactam 1-C)    1580

----------
Test: Concentration in arterial plasma of critically ill adults drawn simultaneously with CSF, HPLC-UV
Format: in vivo, human
Details: human, plasma, intravenous; patient 2, cumulative dose 200 mg, treatment day 1, noncompartmental; read-out: t1/2 (half-life) in plasma (converted)
Starred links: 1 amine or outer side, 2 acyl side, 3 side chain; linkers in the order of their positions; H or OH if unused. Positions of bridges follow the written chain, without caps; N, C: chain ends. Non-standard residues stand in square brackets, D forms with d. Residues, ends and D or L forms follow the SMILES beside them. *: point of attachment. pTerphenylCO(4''-OnC5H11) = CCCCCOc1ccc(-c2ccc(-c3ccc(C(=O)*)cc3)cc2)cc1; Orn(4R-OH,5R-OH) = O=C([C@H](C[C@@H](O)[C@@H](O)N[*:3])N[*:1])[*:2]; hTyr(3S-OH,4S-OH) = N[C@H](C(=O)O)[C@H](O)[C@@H](O)c1ccc(O)cc1; Pro(3S-OH,4S-Me) = C[C@H]1CN[C@H](C(=O)O)[C@H]1O; Hyp = O=C(O)[C@@H]1C[C@@H](O)CN1
Attribute measured: half-life (h)

1. CCCCCOc1ccc(-c2ccc(-c3ccc(C(=O)N[C@H]4C[C@@H](O)[C@@H](O)NC(=O)[C@@H]5[C@@H](O)[C@@H](C)CN5C(=O)[C@H]([C@@H](C)O)NC(=O)[C@H]([C@H](O)[C@@H](O)c5ccc(O)cc5)NC(=O)[C@@H]5C[C@@H](O)CN5C(=O)[C@H]([C@@H](C)O)NC4=O)cc3)cc2)cc1 [anidulafungin] ({pTerphenylCO(4''-OnC5H11)}-[Orn(4R-OH,5R-OH)]T[Hyp][hTyr(3S-OH,4S-OH)]T[Pro(3S-OH,4S-Me)]; lactam 1-C)    14.7

----------
Test: Concentration in arterial plasma of critically ill adults drawn simultaneously with CSF, HPLC-UV
Format: in vivo, human
Details: human, plasma, iv, 2500 mg; patient 3, arterial blood simultaneous with lumbar puncture, cumulative dose 2,500 mg, treatment day 24, 0.5 h from start of infusion, steady state; read-out: Plasma concn
Starred links: 1 amine or outer side, 2 acyl side, 3 side chain; linkers in the order of their positions; H or OH if unused. Positions of bridges follow the written chain, without caps; N, C: chain ends. Non-standard residues stand in square brackets, D forms with d. Residues, ends and D or L forms follow the SMILES beside them. *: point of attachment. pTerphenylCO(4''-OnC5H11) = CCCCCOc1ccc(-c2ccc(-c3ccc(C(=O)*)cc3)cc2)cc1; Orn(4R-OH,5R-OH) = O=C([C@H](C[C@@H](O)[C@@H](O)N[*:3])N[*:1])[*:2]; hTyr(3S-OH,4S-OH) = N[C@H](C(=O)O)[C@H](O)[C@@H](O)c1ccc(O)cc1; Pro(3S-OH,4S-Me) = C[C@H]1CN[C@H](C(=O)O)[C@H]1O; Hyp = O=C(O)[C@@H]1C[C@@H](O)CN1
Attribute measured: level at 0.5 h (ng/mL)

1) CCCCCOc1ccc(-c2ccc(-c3ccc(C(=O)N[C@H]4C[C@@H](O)[C@@H](O)NC(=O)[C@@H]5[C@@H](O)[C@@H](C)CN5C(=O)[C@H]([C@@H](C)O)NC(=O)[C@H]([C@H](O)[C@@H](O)c5ccc(O)cc5)NC(=O)[C@@H]5C[C@@H](O)CN5C(=O)[C@H]([C@@H](C)O)NC4=O)cc3)cc2)cc1 [anidulafungin] ({pTerphenylCO(4''-OnC5H11)}-[Orn(4R-OH,5R-OH)]T[Hyp][hTyr(3S-OH,4S-OH)]T[Pro(3S-OH,4S-Me)]; lactam 1-C)    5070

----------
Test: Concentration in arterial plasma of critically ill adults drawn simultaneously with CSF, HPLC-UV
Assay type: in vivo, human
Conditions: human, plasma, intravenous; patient 5, cumulative dose 200 mg, treatment day 2, noncompartmental; read-out: t1/2 (half-life) in plasma (converted)
Starred links: 1 amine or outer side, 2 acyl side, 3 side chain; linkers in the order of their positions; H or OH if unused. Positions of bridges follow the written chain, without caps; N, C: chain ends. Non-standard residues stand in square brackets, D forms with d. Residues, ends and D or L forms follow the SMILES beside them. *: point of attachment. hTyr(3S-OH,4S-OH,3'-OSO3H) = N[C@H](C(=O)O)[C@H](O)[C@@H](O)c1ccc(O)c(OS(=O)(=O)O)c1; Orn(4R-OH,5R-OH) = O=C([C@H](C[C@@H](O)[C@@H](O)N[*:3])N[*:1])[*:2]; Pro(3S-OH,4S-Me) = C[C@H]1CN[C@H](C(=O)O)[C@H]1O; X1 = CCCCCOc1ccc(-c2cc(-c3ccc(C(=O)*)cc3)no2)cc1; Gln(3R-OH) = NC(=O)C[C@@H](O)[C@H](N)C(=O)O; Hyp = O=C(O)[C@@H]1C[C@@H](O)CN1
Attribute measured: half-life (h)

1) CCCCCOc1ccc(-c2cc(-c3ccc(C(=O)N[C@H]4C[C@@H](O)[C@@H](O)NC(=O)[C@@H]5[C@@H](O)[C@@H](C)CN5C(=O)[C@H]([C@H](O)CC(N)=O)NC(=O)[C@H]([C@H](O)[C@@H](O)c5ccc(O)c(OS(=O)(=O)O)c5)NC(=O)[C@@H]5C[C@@H](O)CN5C(=O)[C@H]([C@@H](C)O)NC4=O)cc3)no2)cc1 [micafungin] (X1-[Orn(4R-OH,5R-OH)]T[Hyp][hTyr(3S-OH,4S-OH,3'-OSO3H)][Gln(3R-OH)][Pro(3S-OH,4S-Me)]; lactam 1-C)    12.9

----------
Experiment: clinical
Conditions: human, in vivo, iv, 200 mg
Starred links: 1 amine or outer side, 2 acyl side, 3 side chain; linkers in the order of their positions; H or OH if unused. Positions of bridges follow the written chain, without caps; N, C: chain ends. Non-standard residues stand in square brackets, D forms with d. Residues, ends and D or L forms follow the SMILES beside them. *: point of attachment. hTyr(3S-OH,4S-OH,3'-OSO3H) = N[C@H](C(=O)O)[C@H](O)[C@@H](O)c1ccc(O)c(OS(=O)(=O)O)c1; Orn(4R-OH,5R-OH) = O=C([C@H](C[C@@H](O)[C@@H](O)N[*:3])N[*:1])[*:2]; Pro(3S-OH,4S-Me) = C[C@H]1CN[C@H](C(=O)O)[C@H]1O; X1 = CCCCCOc1ccc(-c2cc(-c3ccc(C(=O)*)cc3)no2)cc1; Gln(3R-OH) = NC(=O)C[C@@H](O)[C@H](N)C(=O)O; Hyp = O=C(O)[C@@H]1C[C@@H](O)CN1
Attribute measured: Kp at 16 h

1) CCCCCOc1ccc(-c2cc(-c3ccc(C(=O)N[C@H]4C[C@@H](O)[C@@H](O)NC(=O)[C@@H]5[C@@H](O)[C@@H](C)CN5C(=O)[C@H]([C@H](O)CC(N)=O)NC(=O)[C@H]([C@H](O)[C@@H](O)c5ccc(O)c(OS(=O)(=O)O)c5)NC(=O)[C@@H]5C[C@@H](O)CN5C(=O)[C@H]([C@@H](C)O)NC4=O)cc3)no2)cc1 [micafungin] (X1-[Orn(4R-OH,5R-OH)]T[Hyp][hTyr(3S-OH,4S-OH,3'-OSO3H)][Gln(3R-OH)][Pro(3S-OH,4S-Me)]; lactam 1-C)    0.08
